assay: osmotic lysis modulators in infected erythrocytes, primary screen, PSAC antagonist project, cell-based, P. falciparum Indochina, OD700, 3 h (AID 1156); details: higher = more signal, called active from +8 up or from −8 down
Lab note: compare z-score against -0.4. Equal or greater, write rule met. Smaller, write rule not met.

[
  {
    "compound": "C#CCOc1ccc(C[C@H]2C(=O)O[C@H](Cc3ccccc3)[C@H](/C=C/C3CC3)N2CC#C)cc1",
    "class-name": "rule met"
  },
  {
    "compound": "CCCCC(=C=CC[C@@H](O)c1ccc(OCCO)cc1)C[C@@H](O)c1cc(Cl)cc(Cl)c1O",
    "class-name": "rule met"
  },
  {
    "compound": "C=C(COC)/C(=C/C[C@H](OC(C)=O)c1ccc(CO)o1)c1cnc2ccccc2c1",
    "class-name": "rule met"
  },
  {
    "compound": "COC(=O)C(CC#Cc1ccc2c(c1)[C@]1(C(=O)N2)[C@H](C(N)=O)[C@H]2C(=O)O[C@H](c3ccccc3)[C@H](c3ccccc3)N2[C@@H]1c1ccc(O)cc1)C(=O)OC",
    "class-name": "rule met"
  },
  {
    "compound": "COC(=O)C1=CC(c2ccc(CO)cc2)=CC(C2CC2)N(C)C=C1C(=O)OC (stereo unspecified)",
    "class-name": "rule not met"
  }
]

With those in mind, consider the next compound.
Qu. Is z-score at least -0.4? Consider COC(=O)C1=CC(c2ccc(CO)cc2)=CC(c2cccs2)N(C)C=C1C(=O)OC (stereo unspecified)
Ans. rule not met

---

system: Inhibin beta A chain (activin A); experiment: INHBA (activin A) binders on microarrays, primary screen, biochemical, small-molecule microarray, 635 nm fluorescence scan (AID 1107); conditions: small-molecule microarray binding, higher = more signal;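 also: mouse activin A protein probed at 4.33 µg/mL on printed slides; score merges bound-protein fluorescence near 667 nm with spot signal-to-noise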
I'd appreciate it if you could label each record using composite z-score and these ranges: lower band: < 0.3; central band: ≥ 0.3 and < 0.9; upper band: ≥ 0.9

As a guide, the following entries are already answered.
[
  {
    "compound": "COc1ccc(CCNC(=O)[C@@]2(Sc3ccc(C)cc3)CC(=O)N(Cc3ccccc3)[C@@H]2c2ccc(CO)cc2I)cc1",
    "experimental-target": "Inhibin beta A chain (activin A)",
    "class-name": "central band"
  },
  {
    "compound": "CCCC[C@@H](O)C1=C(C)C[C@H]2C(=O)N(C)C(=O)[C@H]2[C@H]1CO",
    "experimental-target": "Inhibin beta A chain (activin A)",
    "class-name": "lower band"
  },
  {
    "compound": "C=CCNC(=O)[C@@H]1[C@H]2C(=O)O[C@H](c3ccccc3)[C@H](c3ccccc3)N2[C@H](c2ccc(O)cc2)[C@@]12C(=O)Nc1ccccc12",
    "experimental-target": "Inhibin beta A chain (activin A)",
    "class-name": "lower band"
  },
  {
    "compound": "Cc1ccc(S[C@]2(C(=O)NC3CC3)CC(=O)N(Cc3ccccc3C(F)(F)F)[C@@H]2c2ccc(CO)cc2I)cc1",
    "experimental-target": "Inhibin beta A chain (activin A)",
    "class-name": "upper band"
  },
  {
    "compound": "O=c1n(-c2ccccc2)c(=O)n2n1CC(COc1ccccc1)=C1[C@@H](CCc3ccccc3)OB(O)C[C@@H]12",
    "experimental-target": "Inhibin beta A chain (activin A)",
    "class-name": "lower band"
  }
]

Qu. Exercise: read the entry NCCCCCNC(=O)[C@H]1C[C@H]2C(=O)NCC(=O)N2[C@H]1c1ccc(O)cc1 and state which class it falls under.
Ans. central band

Qu. Exercise: read the entry C=CCN1C(=O)[C@@]2(O[C@@H](CCO)[C@H]([Si](C)(C)c3ccc(OC)cc3)[C@H]2C)c2cc(N3C(=O)c4cccc5cccc3c45)ccc21 and state which class it falls under.
Ans. lower band

Qu. Exercise: read the entry CO[C@H]1O[C@H](CO)[C@@H](OC(=O)CCc2ccccc2)[C@@H]2OC(=O)[C@H](Cc3ccccc3)C/C=C/C[C@@H](Cc3ccccc3)C(=O)O[C@@H]12 and state which class it falls under.
Ans. upper band

Qu. Exercise: read the entry O=C1N(CCS(=O)(=O)c2ccccc2)Cc2ccccc2[C@@H]2OC(c3ccc(OCCCO)cc3)=N[C@]12Cc1ccccc1 and state which class it falls under.
Ans. central band

---

experiment: MM1S cell viability effects, profiling panel, calcein-AM fluorescence, 48 h, basal (AID 1165); conditions: higher = more signal;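 also: viability of MM1S multiple myeloma cells under basal unstimulated conditions; test concentration not given here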
quantity-kind: z-score
One number for each entry.

Here are 3 molecules together with their reported answers.
[
  {
    "molecule": "CC(C)[Si](C#C[Si](C(C)C)(C(C)C)C(C)C)(O[C@H](C)c1cn([C@H](C)c2ccccc2)nn1)C(C)C",
    "reported-result": -0.908
  },
  {
    "molecule": "COCCOC(=O)N1C(=O)[C@@]2(c3ccccc31)[C@H](C(=O)Nc1nc3ccccc3s1)[C@H]1C(=O)O[C@H](c3ccccc3)[C@H](c3ccccc3)N1[C@@H]2c1ccc(O)cc1",
    "reported-result": -3.26
  },
  {
    "molecule": "C[N+](C)(C)CCCC[C@@H]1NC(=O)[C@@H]2C[C@H](C(=O)NCCCCCNC(=O)CS)[C@H](c3ccc(O)cc3)N2C1=O",
    "reported-result": -0.982
  }
]

Value sought for every listed molecule: z-score.
1. C=CC[C@@]1(C(=O)NCc2ccccc2)N=C(c2ccc(OCCCO)cc2)O[C@@H]1c1ccccc1
2. COCCCNC(=O)[C@@]1(C)c2ccccc2C(=O)N(Cc2cc(F)cc(C(F)(F)F)c2)[C@H]1c1ccc(CO)cc1
3. COC(=O)C(CC#Cc1ccc2c(c1)[C@]1(C(=O)N2)[C@H](c2ccccc2OCCO)N2[C@H](c3ccccc3)[C@H](c3ccccc3)OC(=O)[C@H]2[C@@H]1C(=O)N1CCCCCCC1)C(=O)OC
4. CCCCCN1CC=CC23O[C@@H]4/C=C\CCC(C)OC(=O)C4[C@H]2C(=O)N(CCO)[C@@H]3C1=O (stereo partly specified)
5. C=CCNC(=O)[C@@H]1[C@H]2C(=O)O[C@H](c3ccccc3)[C@H](c3ccccc3)N2[C@H](c2ccc(O)cc2)[C@@]12C(=O)Nc1ccc(C#Cc3ccc(OC)cc3)cc12
6. CC(C)C[C@@H]1NC(=O)[C@H]2C[C@@H](C(=O)NCCCC[N+](C)(C)C)[C@@H](c3cccc(OCCO)c3)N2C1=O
7. COc1c(C)cc(-c2cc3c(c(CCc4ccccc4)n2)[Si](C(C)C)(C(C)C)OC3)cc1C
8. C=CC[C@]1(C(=O)N2CCCCC2)COC(c2ccc(OCCCO)cc2)=N1

Ans.
[-2.93, 0.534, 0.578, 2.91, -2.63, 0.0808, -1.5, -3.6]

Value sought for every listed molecule: z-score.
1. COc1ccc([Si](C)(C)[C@@H]2[C@@H](CCn3cc([C@H](O)c4ccccc4)nn3)O[C@]3(C(=O)N(C)c4c(Br)cc(C)cc43)[C@H]2C)cc1
2. [N-]=[N+]=NCc1ccccc1C[C@]1(C(=O)NCc2ccccc2)N=C(c2ccc(OCCCO)cc2)O[C@H]1c1ccccc1
3. C=CCN1C(=O)[C@@]2(O[C@@H](CCO)[C@H]([Si](C)(C)c3ccc(OC)cc3)[C@H]2C)c2cc(N3C(=O)c4cccc5cccc3c45)ccc21
4. C/C=C/[C@@H](CCn1cc(CCO[Si](C(C)C)(C(C)C)C(C)C)nn1)[Si](C)(C)c1ccc(OC)cc1
5. NCCCCCCNC(=O)[C@@H]1C[C@@H]2C(=O)N[C@@H](Cc3ccccc3)C(=O)N2[C@@H]1c1ccc(O)cc1

Ans.
[-2.72, -2.07, -2.92, -1.17, 0.0892]

---

assay: basal HepG2 mitochondrial membrane potential changes, profiling panel, cell-based, JC-1 fluorescence, 24 h, 100 nL compound (AID 1167); conditions: higher = more signal; also: test concentration not given here
quantity-kind: z-score
Give bare numbers.

Here are 2 molecules together with their reported answers.
[
  {
    "given-smiles": "CN(C)CCCC[C@@H]1NC(=O)[C@@H]2C[C@H](C(=O)NCCCCCNC(=O)CS)[C@H](c3cccc(OCCO)c3)N2C1=O",
    "quantity-kind": "z-score",
    "reported-result": 0.902
  },
  {
    "given-smiles": "CC(C)C(=C=CC[C@@H](O)c1ccc(CO)o1)CCO",
    "quantity-kind": "z-score",
    "reported-result": 0.919
  }
]

Now for a further molecule.
Qu. I have this molecule here, [N-]=[N+]=Nc1ccccc1[C@H]1OC(c2ccc(OCCCO)cc2)=N[C@@]1(Cc1ccccc1)C(N)=O , and I need its recorded z-score.
Ans. 0.912

---

test: E. coli DRC41 culture turbidity changes, primary screen, E. coli filamentation inducer project, strain DRC41, OD650, 48 h (AID 1152);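 also: E. coli MC1000 strain DRC41 lacking acrAB efflux pump and sulA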; details: E. coli DRC41 (acrAB sulA), higher = more signal, called active from +8 up or from −8 down
Exercise: state measured z-score for each of the molecules provided.
Answers are plain numbers.

Here are 2 molecules together with their reported answers.
[
  {
    "molecule": "CCCCCCC#C[Si](O[C@H](c1ccccc1)c1cn(Cc2ccccc2)nn1)(C(C)C)C(C)C",
    "quantity-kind": "z-score",
    "reported-result": 3.05
  },
  {
    "molecule": "[N-]=[N+]=Nc1ccccc1[C@H]1OC(c2ccc(OCCCO)cc2)=N[C@@]1(Cc1ccccc1)C(N)=O",
    "quantity-kind": "z-score",
    "reported-result": 1.99
  }
]

Now for a further molecule.
Qu. I have this molecule here, CC1CC/C=C\[C@H]2OC34C=CCN(C(C)C)C(=O)[C@H]3N(C(CO)C(C)C)C(=O)[C@@H]4C2C(=O)O1 (stereo partly drawn) , and I need its recorded z-score.
Ans. 2.16
